experiment: Pharmacokinetics; settings: male, ICR (CD-1), mouse, plasma, po, 20 mg/kg
property measured: Cmax (ng/mL)

record smiles	recorded number
Cc1cc(C)nc(N[C@@H]2CCN(c3c(F)cc4c(=O)c(C(=O)O)cn5c4c3OC[C@@H]5C)C2)n1	14500

====

Catalogue of MIC values
tested on: S. aureus; experiment: MIC (microbroth dilution); type: cell-based, Staphylococcus aureus; settings: Staphylococcus aureus, SA-1199; read-out: MIC

compound	MIC
Cc1cc(C)nc(N[C@@H]2CCN(c3c(F)cc4c(=O)c(C(=O)O)cn5c4c3OC[C@@H]5C)C2)n1	0.016 µg/mL
CCn1cc(C(=O)O)c(=O)c2cc(F)c(N3CCN(Cc4cccc5c4CCCC5)CC3)cc21	0.25 µg/mL
C[C@H]1COc2c(N3CCN(Cc4cccc5ccccc45)CC3)c(F)cc3c(=O)c(C(=O)O)cn1c23	0.25 µg/mL
O=C(O)c1cn(C2CC2)c2c(Cc3cccc4ccccc34)c(N3CCNCC3)c(F)cc2c1=O	16 µg/mL
O=C(O)c1cn(C2CC2)c2cc(N3CCN(Cc4cccc5c4CCCC5)CC3)c(F)cc2c1=O	0.5 µg/mL
C[C@H]1COc2c(N3CC[C@@H](Nc4cnccn4)C3)c(F)cc3c(=O)c(C(=O)O)cn1c23	0.03 µg/mL
C[C@H]1COc2c(N3CCN(C)CC3)c(F)cc3c(=O)c(C(=O)O)cn1c23 [Levofloxacin, reference compound]	0.125 µg/mL
